Data provenance is ChEMBL document CHEMBL1208738.

target: UniProt P33032; experiment: Agonist activity at human MC5 receptor expressed in CHO cells assessed as increase of alpha-MSH-induced cAMP accumulation
Sequence (P33032 whole entry): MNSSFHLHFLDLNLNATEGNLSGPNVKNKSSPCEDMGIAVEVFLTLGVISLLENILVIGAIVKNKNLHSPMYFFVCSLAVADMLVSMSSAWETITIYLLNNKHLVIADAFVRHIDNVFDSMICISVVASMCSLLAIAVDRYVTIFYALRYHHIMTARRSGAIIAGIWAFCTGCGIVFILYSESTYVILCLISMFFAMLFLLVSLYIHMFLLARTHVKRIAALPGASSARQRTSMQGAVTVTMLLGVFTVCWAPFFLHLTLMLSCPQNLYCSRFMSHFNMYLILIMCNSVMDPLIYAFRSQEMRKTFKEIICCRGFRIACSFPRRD
pEC50: −log10 of the molar value.
Let's look at some compounds and their measured pEC50.
reported endpoint: pEC50

| compound | bound type | number |
| --- | --- | --- |
| CC(=O)N(CC(C1CCCCC1)N1CCN(C(=O)[C@@H]2CN(C(C)(C)C)C[C@H]2c2ccc(F)cc2F)CC1)C(C)C (stereo in doubt; 19B) | = | 5.55 |
| CC(C)CC(CN(C(C)C)S(C)(=O)=O)N1CCN(C(=O)[C@@H]2CN(C(C)(C)C)C[C@H]2c2ccc(F)cc2F)CC1 (single isomer, unassigned; diastereomer 2) | < | 5.30 |
| CC(C)N(CC(C1CCCCC1)N1CCN(C(=O)[C@@H]2CN(C(C)(C)C)C[C@H]2c2ccc(F)cc2F)CC1)C(=O)c1cnn(C(C)C)c1 (single isomer, unassigned; diastereomer 1) | = | 6.00 |
| CC(C)N(CC(C1CCCCC1)N1CCN(C(=O)[C@@H]2CN(C(C)(C)C)C[C@H]2c2ccc(F)cc2F)CC1)S(C)(=O)=O (single isomer, unassigned; diastereomer 2) | < | 5.30 |
| CC(C)N(CC(C1CCCCC1)N1CCN(C(=O)[C@@H]2CN(C(C)(C)C)C[C@H]2c2ccc(F)cc2F)CC1)C(=O)c1cccnn1 (single isomer, unassigned; diastereomer 1) | = | 6.31 |
| CC(=O)N(CC(CC(C)C)N1CCN(C(=O)[C@@H]2CN(C(C)(C)C)C[C@H]2c2ccc(F)cc2F)CC1)C(C)C (single isomer, unassigned; diastereomer 2) | < | 5.30 |

====

target: Melanocyte-stimulating hormone receptor (Homo sapiens); assay: Agonist activity at human MC1 receptor expressed in CHO cells assessed as increase of alpha-MSH-induced cAMP accumulation
Sequence (Q01726 whole entry): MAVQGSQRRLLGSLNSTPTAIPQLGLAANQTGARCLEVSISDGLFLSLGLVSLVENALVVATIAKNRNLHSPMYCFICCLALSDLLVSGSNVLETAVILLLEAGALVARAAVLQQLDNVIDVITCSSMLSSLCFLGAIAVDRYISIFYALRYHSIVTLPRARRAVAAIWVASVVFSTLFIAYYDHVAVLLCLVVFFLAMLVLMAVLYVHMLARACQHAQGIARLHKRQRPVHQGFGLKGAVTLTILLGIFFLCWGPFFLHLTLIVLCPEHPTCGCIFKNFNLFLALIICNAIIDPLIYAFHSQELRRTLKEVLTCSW

| compound | EC50 |
| --- | --- |
| CC(C)N(CC(C1CCCCC1)N1CCN(C(=O)[C@@H]2CN(C(C)(C)C)C[C@H]2c2ccc(F)cc2F)CC1)C(=O)c1cnn(C(C)C)c1 (single isomer, unassigned; diastereomer 1) | 520 nM |
| CC(C)N(CC(C1CCCCC1)N1CCN(C(=O)[C@@H]2CN(C(C)(C)C)C[C@H]2c2ccc(F)cc2F)CC1)S(C)(=O)=O (single isomer, unassigned; diastereomer 2) | 540 nM |
| CC(C)N(CC(C1CCCCC1)N1CCN(C(=O)[C@@H]2CN(C(C)(C)C)C[C@H]2c2ccc(F)cc2F)CC1)C(=O)c1cccnn1 (single isomer, unassigned; diastereomer 1) | 1200 nM |
| CC(C)CC(CN(C(C)C)S(C)(=O)=O)N1CCN(C(=O)[C@@H]2CN(C(C)(C)C)C[C@H]2c2ccc(F)cc2F)CC1 (single isomer, unassigned; diastereomer 2) | > 5000 nM |
| CC(=O)N(CC(C1CCCCC1)N1CCN(C(=O)[C@@H]2CN(C(C)(C)C)C[C@H]2c2ccc(F)cc2F)CC1)C(C)C (stereo in doubt; 19B) | 890 nM |
| CC(=O)N(CC(CC(C)C)N1CCN(C(=O)[C@@H]2CN(C(C)(C)C)C[C@H]2c2ccc(F)cc2F)CC1)C(C)C (single isomer, unassigned; diastereomer 2) | 560 nM |

====

biological target: Melanocortin receptor 4 (Homo sapiens); test: Agonist activity at human MC4 receptor expressed in CHO cells assessed as increase of alpha-MSH-induced cAMP accumulation; format: functional, cell-based

| compound | test target | EC50 |
| --- | --- | --- |
| CCCN(CCC)CC(C1CCCCC1)N1CCN(C(=O)[C@@H]2CN(C(C)(C)C)C[C@H]2c2ccc(F)cc2F)CC1 (stereo not given in full) | Melanocortin receptor 4 (Homo sapiens) | 710 nM |
| CCN(CC)CC(C1CCCCC1)N1CCN(C(=O)[C@@H]2CN(C(C)(C)C)C[C@H]2c2ccc(F)cc2F)CC1 (stereo not given in full) | Melanocortin receptor 4 (Homo sapiens) | 570 nM |
| CC(C)N(CC(C1CCCCC1)N1CCN(C(=O)[C@@H]2CN(C(C)(C)C)C[C@H]2c2ccc(F)cc2F)CC1)C(=O)c1cnn(C(C)C)c1 (single isomer, unassigned; diastereomer 2) | Melanocortin receptor 4 (Homo sapiens) | 19 nM |
| CC(=O)N(CC(C1CCCCC1)N1CCN(C(=O)[C@@H]2CN(C(C)(C)C)C[C@H]2c2ccc(F)cc2F)CC1)C(C)C (single isomer, unassigned; diastereomer 1) | Melanocortin receptor 4 (Homo sapiens) | 50 nM |
| CC(C)N(CC(C1CCCCC1)N1CCN(C(=O)[C@@H]2CN(C(C)(C)C)C[C@H]2c2ccc(F)cc2F)CC1)C(=O)c1cnn(C(C)C)c1 (single isomer, unassigned; diastereomer 1) | Melanocortin receptor 4 (Homo sapiens) | 6.4 nM |
| CC(=O)N(CC(CC(C)C)N1CCN(C(=O)[C@@H]2CN(C(C)(C)C)C[C@H]2c2ccc(F)cc2F)CC1)C(C)C (single isomer, unassigned; diastereomer 2) | Melanocortin receptor 4 (Homo sapiens) | 9.7 nM |
| CC(C)N(CC(C1CCCCC1)N1CCN(C(=O)[C@@H]2CN(C(C)(C)C)C[C@H]2c2ccc(F)cc2F)CC1)S(C)(=O)=O (single isomer, unassigned; diastereomer 1) | Melanocortin receptor 4 (Homo sapiens) | 25 nM |
| CC(C)N(CC(N1CCN(C(=O)[C@@H]2CN(C(C)(C)C)C[C@H]2c2ccc(F)cc2F)CC1)C(C)(C)C)S(C)(=O)=O (stereo in doubt; 27B) | Melanocortin receptor 4 (Homo sapiens) | 44 nM |
| CC(=O)N(CC(C1CCCCC1)N1CCN(C(=O)[C@@H]2CN(C(C)(C)C)C[C@H]2c2ccc(F)cc2F)CC1)C(C)C (stereo in doubt; 19B) | Melanocortin receptor 4 (Homo sapiens) | 25 nM |
| CC(C)N(CC(C1CCCCC1)N1CCN(C(=O)[C@@H]2CN(C(C)(C)C)C[C@H]2c2ccc(F)cc2F)CC1)S(C)(=O)=O (single isomer, unassigned; diastereomer 2) | Melanocortin receptor 4 (Homo sapiens) | 13 nM |

====

target: Melanocortin receptor 4 (Homo sapiens, UniProt P32245); experiment: Agonist activity at human MC4 receptor expressed in CHO cells assessed as increase of alpha-MSH-induced cAMP accumulation at 10 uM relative to alpha-MSH; assay type: functional, cell-based
Sequence (P32245 whole entry): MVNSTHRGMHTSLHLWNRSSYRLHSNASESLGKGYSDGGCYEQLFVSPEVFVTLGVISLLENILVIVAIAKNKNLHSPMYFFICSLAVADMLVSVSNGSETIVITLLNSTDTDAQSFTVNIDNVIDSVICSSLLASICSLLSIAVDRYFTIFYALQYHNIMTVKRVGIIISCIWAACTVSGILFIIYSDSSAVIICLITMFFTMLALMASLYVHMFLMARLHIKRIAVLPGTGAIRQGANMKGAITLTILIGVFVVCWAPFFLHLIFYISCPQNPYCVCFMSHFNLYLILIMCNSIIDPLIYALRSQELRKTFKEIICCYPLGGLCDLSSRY

| compound | unit | Activity |
| --- | --- | --- |
| CC(C)NCC(C1CCCCC1)N1CCN(C(=O)[C@@H]2CN(C(C)(C)C)C[C@H]2c2ccc(F)cc2F)CC1 (stereo partly specified) | % | 95 |
| CC(=O)N(CC(N1CCN(C(=O)[C@@H]2CN(C(C)(C)C)C[C@H]2c2ccc(F)cc2F)CC1)C(C)(C)C)C(C)C (single isomer, unassigned; diastereomer 2) | % | 94 |
| CCN(CC)CC(C1CCCCC1)N1CCN(C(=O)[C@@H]2CN(C(C)(C)C)C[C@H]2c2ccc(F)cc2F)CC1 (stereo partly specified) | % | 101 |
| CC(C)CN(CC(C)C)CC(C1CCCCC1)N1CCN(C(=O)[C@@H]2CN(C(C)(C)C)C[C@H]2c2ccc(F)cc2F)CC1 (stereo partly specified) | % | 10 |
| CCCN(CCC)CC(C1CCCCC1)N1CCN(C(=O)[C@@H]2CN(C(C)(C)C)C[C@H]2c2ccc(F)cc2F)CC1 (stereo partly specified) | % | 97 |
| CC(C)N(CC(C1CCCCC1)N1CCN(C(=O)[C@@H]2CN(C(C)(C)C)C[C@H]2c2ccc(F)cc2F)CC1)C(=O)c1ncccn1 (single isomer, unassigned; diastereomer 1) | % | 98 |

====

Let's look at some compounds and their measured Activity.
target: Melanocyte-stimulating hormone receptor (Homo sapiens); experiment: Agonist activity at human MC1 receptor expressed in CHO cells assessed as increase of alpha-MSH-induced cAMP accumulation at 10 uM relative to alpha-MSH; format: functional, cell-based
Sequence (Q01726 whole entry, looked up): as the sequence (Q01726 whole entry) above

| compound | test target | unit | Activity |
| --- | --- | --- | --- |
| CC(C)N(CC(C1CCCCC1)N1CCN(C(=O)[C@@H]2CN(C(C)(C)C)C[C@H]2c2ccc(F)cc2F)CC1)C(=O)c1cccnn1 (single isomer, unassigned; diastereomer 1) | Melanocyte-stimulating hormone receptor (Homo sapiens) | % | 58 |
| CC(C)CC(CN(C(C)C)S(C)(=O)=O)N1CCN(C(=O)[C@@H]2CN(C(C)(C)C)C[C@H]2c2ccc(F)cc2F)CC1 (single isomer, unassigned; diastereomer 2) | Melanocyte-stimulating hormone receptor (Homo sapiens) | % | 62 |
| CC(C)N(CC(C1CCCCC1)N1CCN(C(=O)[C@@H]2CN(C(C)(C)C)C[C@H]2c2ccc(F)cc2F)CC1)C(=O)c1cnn(C(C)C)c1 (single isomer, unassigned; diastereomer 1) | Melanocyte-stimulating hormone receptor (Homo sapiens) | % | 60 |
| CC(=O)N(CC(CC(C)C)N1CCN(C(=O)[C@@H]2CN(C(C)(C)C)C[C@H]2c2ccc(F)cc2F)CC1)C(C)C (single isomer, unassigned; diastereomer 2) | Melanocyte-stimulating hormone receptor (Homo sapiens) | % | 77 |
| CC(=O)N(CC(C1CCCCC1)N1CCN(C(=O)[C@@H]2CN(C(C)(C)C)C[C@H]2c2ccc(F)cc2F)CC1)C(C)C (stereo in doubt; 19B) | Melanocyte-stimulating hormone receptor (Homo sapiens) | % | 61 |
| CC(C)N(CC(C1CCCCC1)N1CCN(C(=O)[C@@H]2CN(C(C)(C)C)C[C@H]2c2ccc(F)cc2F)CC1)S(C)(=O)=O (single isomer, unassigned; diastereomer 2) | Melanocyte-stimulating hormone receptor (Homo sapiens) | % | 63 |
